- Tested on: ATP;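 also: ATP exposure 15 min at 22 °C before imaging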
- assay.explanation: switch fluorescence ratio, 500 uM ATP over buffer (Cy3 cluster intensity, sum of 5 cycles each) (fold (ratio)); higher = stronger signal-on switching upon ATP binding; sequences stand for … in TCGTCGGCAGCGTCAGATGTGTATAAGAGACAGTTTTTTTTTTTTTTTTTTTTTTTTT…TC
- conditions: aptamer strand: ATP DNA aptamer (quencher-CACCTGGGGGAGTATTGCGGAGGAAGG + anchor), 100 nM annealed; ATP concentration: 500 uM
// reported switch fluorescence ratio for each item listed
recorded.metric: switch fluorescence ratio

{"seq.string": "TTCGGGGTAG", "target.or.test.system": "ATP", "recorded.metric": "switch fluorescence ratio", "test.result": 0.963}
{"seq.string": "CTGAGGGGGC", "target.or.test.system": "ATP", "recorded.metric": "switch fluorescence ratio", "test.result": 1.02}
{"seq.string": "TTGGGTTTGT", "target.or.test.system": "ATP", "recorded.metric": "switch fluorescence ratio", "test.result": 0.997}
{"seq.string": "TGATATCCGA", "target.or.test.system": "ATP", "recorded.metric": "switch fluorescence ratio", "test.result": 1.04}
{"seq.string": "GGTCGGACGT", "target.or.test.system": "ATP", "recorded.metric": "switch fluorescence ratio", "test.result": 0.992}
{"seq.string": "AACAGGGGAG", "target.or.test.system": "ATP", "recorded.metric": "switch fluorescence ratio", "test.result": 1.03}
{"seq.string": "CTTGATGCAG", "target.or.test.system": "ATP", "recorded.metric": "switch fluorescence ratio", "test.result": 0.996}
{"seq.string": "TGCCTAGTTT", "target.or.test.system": "ATP", "recorded.metric": "switch fluorescence ratio", "test.result": 0.995}
{"seq.string": "TGTGCTATTG", "target.or.test.system": "ATP", "recorded.metric": "switch fluorescence ratio", "test.result": 0.983}
{"seq.string": "GGAACAGAGG", "target.or.test.system": "ATP", "recorded.metric": "switch fluorescence ratio", "test.result": 0.977}

----------
- Test system: ATP;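 also: ATP exposure 15 min at 22 °C before imaging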
- assay.explanation: switch fluorescence ratio, 500 uM ATP over buffer (Cy3 cluster intensity, sum of 5 cycles each) (fold (ratio)); higher = stronger signal-on switching upon ATP binding; sequences stand for … in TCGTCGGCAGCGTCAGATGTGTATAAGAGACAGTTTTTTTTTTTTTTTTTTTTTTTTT…TC
- conditions: aptamer strand: ATP DNA aptamer (quencher-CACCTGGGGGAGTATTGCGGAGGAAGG + anchor), 100 nM annealed; ATP concentration: 500 uM
Measured switch fluorescence ratio, listed per entry.

{"seq.string": "CGAATAGGCG", "switch fluorescence ratio": 0.976}
{"seq.string": "GCTGGTTGTT", "switch fluorescence ratio": 1.03}
{"seq.string": "AACGGCAGGG", "switch fluorescence ratio": 1}
{"seq.string": "GAGGTGTGAC", "switch fluorescence ratio": 1.01}
{"seq.string": "CTAATTATGG", "switch fluorescence ratio": 1.04}
{"seq.string": "GTATTTGGGT", "switch fluorescence ratio": 0.986}
{"seq.string": "GGTTTCAGCA", "switch fluorescence ratio": 1.01}
{"seq.string": "TATCCCCCGG", "switch fluorescence ratio": 1.95}
{"seq.string": "ATTTATTATG", "switch fluorescence ratio": 0.989}
{"seq.string": "CAGTTTGTTA", "switch fluorescence ratio": 0.994}
{"seq.string": "AGGTTATATT", "switch fluorescence ratio": 1.01}
{"seq.string": "ATCGAGGGGT", "switch fluorescence ratio": 0.955}
{"seq.string": "ATTTTTTTT", "switch fluorescence ratio": 0.996}
{"seq.string": "TTGCGTAAAA", "switch fluorescence ratio": 0.961}
{"seq.string": "AATTGAGGGC", "switch fluorescence ratio": 1.02}
{"seq.string": "ATTTGTTTAC", "switch fluorescence ratio": 1.01}
{"seq.string": "AACCTATGGT", "switch fluorescence ratio": 0.978}
{"seq.string": "TTTCAGAACT", "switch fluorescence ratio": 1}
{"seq.string": "AGTATTTTG", "switch fluorescence ratio": 0.96}
{"seq.string": "TTTATTGTGC", "switch fluorescence ratio": 1.03}
{"seq.string": "ATCTACGTTG", "switch fluorescence ratio": 1.05}
{"seq.string": "AAAATTAAGC", "switch fluorescence ratio": 1.01}
{"seq.string": "TTGAGTGCTT", "switch fluorescence ratio": 0.987}
{"seq.string": "CAGCTACGTG", "switch fluorescence ratio": 1.03}
{"seq.string": "GGGGGCTTAC", "switch fluorescence ratio": 1.01}
{"seq.string": "ATTCGGTAGT", "switch fluorescence ratio": 1}
{"seq.string": "AGGGACTAGG", "switch fluorescence ratio": 0.994}
{"seq.string": "AGGGCTGTTA", "switch fluorescence ratio": 0.998}
{"seq.string": "AGGTGGTGCT", "switch fluorescence ratio": 0.991}
{"seq.string": "TAGGGGAATC", "switch fluorescence ratio": 0.992}
{"seq.string": "AAGTTCGATG", "switch fluorescence ratio": 0.976}
{"seq.string": "GGTGTTGGAT", "switch fluorescence ratio": 1.01}
{"seq.string": "AGAGTTGAGA", "switch fluorescence ratio": 1.01}
{"seq.string": "TCATTTAAGG", "switch fluorescence ratio": 0.987}
{"seq.string": "TAGTCTAGTG", "switch fluorescence ratio": 0.981}
{"seq.string": "AGGGGACTTT", "switch fluorescence ratio": 0.978}
{"seq.string": "CTTGATTTGA", "switch fluorescence ratio": 1}
{"seq.string": "TAGTTGGGAT", "switch fluorescence ratio": 0.991}
{"seq.string": "TTTTTAAACG", "switch fluorescence ratio": 0.995}
{"seq.string": "TCCAGGGTAA", "switch fluorescence ratio": 1.04}
{"seq.string": "ATTAATAGCA", "switch fluorescence ratio": 0.974}
{"seq.string": "GTTTTTTTGG", "switch fluorescence ratio": 1}
{"seq.string": "TCAGTTGGTT", "switch fluorescence ratio": 0.977}
